# Tested on: ACHN renal
# procedure_details: NCI tumour cell line growth inhibition, 48 h
Where a SMILES comes first, the peptide text is derived from it.
readout_name: TGI (µM)

molecule | reading_qualifier | assay_value
COC(=O)C(/C(=N/N)C(=O)Nc1cc(Cl)ccc1Cl)c1nc2ccc([N+](=O)[O-])cc2[nH]c1=O (configuration not stated) | > | 100
O=C1C2CCCC2N1Cc1ccccc1 (configuration not stated) | > | 100
O=c1cccccc1O | > | 100
COc1ccc(-c2c(NC(=O)Nc3ccc(Cl)c(C(F)(F)F)c3)cnn2-c2ccc(S(N)(=O)=O)cc2)cc1 | = | 14.2
NC(CCl)=NCC12CC3CC(CC(C3)C1)C2 | = | 11.6
C[C@]12CC[C@@H]3c4ccc(O)cc4CC[C@H]3[C@@H]1CC(Cc1ccccc1)(Cc1ccccc1)C2=O | = | 27.9
CC(=O)NC(CS)C(=O)NC(CO)C(=O)NC(CO)C(=O)NC(Cc1c[nH]c2ccccc12)C(=O)N1CCCC1C(=O)NC(CO)C(=O)NC(Cc1c[nH]c2ccccc12)C(=O)NC(Cc1c[nH]cn1)C(=O)NC(CO)C(=O)NC(Cc1c[nH]c2ccccc12)C(=O)NCC(=O)NCC(=O)NC(C)C(=O)NC(CCC(N)=O)C(=O)NC(CCCCN)C(=O)NC(C)C(=O)NC(CCCNC(=N)N)C(=O)NC(CCCCN)C(N)=O (configuration not stated) (Ac-CSSWPSWHSWGGAQKARK-NH2; configuration not given here) | > | 50

---

# System: CCRF-CEM leukemia
# procedure_details: NCI tumour cell line growth inhibition, 48 h

compound | TGI
COc1ccc(C/C=C(\C)CCO)cc1 | > 100 µM
Cc1ccc(S(=O)(=O)NC(Cc2ccccc2)C(=O)CCl)cc1 (stereo unspecified) | > 100 µM
CN1C(c2ccccc2)CC(=NO)CC1c1ccccc1 (stereo unspecified) | > 100 µM
COc1cc(/C=C2\C[C@H]3[C@@H]4CC=C5C[C@@H](O)CC[C@]5(C)[C@H]4CC[C@]3(C)[C@H]2O)ccc1OCCN1CCCCC1 | 1.88 µM
CC1(C)CC[C@]2(C)[C@@H](O)C[C@]3(C)C(=CC[C@@H]4[C@@]5(C)CC[C@H](O)C(C)(C)[C@@H]5CC[C@]43C)[C@@H]2C1 | > 100 µM
C[C@]12CC[C@@H]3c4ccc(O)cc4CC[C@H]3[C@@H]1CC(Cc1ccccc1)(Cc1ccccc1)C2=O | 36.4 µM
[N-]=[N+]=C1C(=O)C2CC3CC1CC2C3 (stereo unspecified) | > 100 µM
Oc1c(CN2CCCCC2)ccc2cccnc12 | > 100 µM
CCOC(=O)C(=CNc1ccc(S(N)(=O)=O)cc1)C(=O)OCC | > 100 µM
O=P(O)(O)c1ccc2c(c1)OCCOCCOCCOCCO2 | > 100 µM
Cn1cc(-c2ncnc3ccc(-c4cnc(Cl)c(NS(C)(=O)=O)c4)cc23)c2ccccc21 | > 62.7 µM
Cn1nc(-c2ccccc2)c2c(/C=C/c3ccc(F)cc3)onc2c1=O | > 100 µM
COC1CC(O[C@H]2CC[C@@]3(C)C(=CCC4(O)C3CCC35C(=O)OC6(C)O[C@@]43CCC65)C2)OC(C)C1O (stereo partly specified) | > 100 µM
CSc1nc2nccnc2c(=O)[nH]1 | > 100 µM
CC(=O)CCc1ccc(Oc2c3ccccc3nc3occc23)cc1 | 94.7 µM
COC(=O)[C@@H](C)C[C@H](Cc1ccc(F)cc1)NC(=O)c1csc([C@@H](C[C@H](C(C)C)N(C)C(=O)[C@@H](NC(=O)[C@H]2CCCCN2C)C2CC2)OC(C)=O)n1 | > 25 µM
CN(CCO)CCC1COc2ccccc2O1 (stereo unspecified) | > 10 µM
CC1CCCc2c1n[nH]c2CC1CC(=O)NC(=O)C1 (stereo unspecified) | > 100 µM
CC(=O)NNc1ncc(C(=O)/C=C/c2ccccc2C)s1 | > 100 µM
COc1cccc(/C=C2\N=C(Cl)OC2=O)c1O | > 100 µM
CC(=O)N(N=O)c1ccc(N(N=O)C(C)=O)cc1 | > 100 µM

---

# Test system: SF-295 CNS
# procedure_details: NCI tumour cell line growth inhibition, 48 h
Please note: 1 applies when TGI is 30 µM or greater, and 0 applies otherwise.

compound | assigned_label
CCCC[C@H](CCc1ccccc1)N(C(=O)OC)N1CCC[C@H]1COC | 1
NCCCNCc1c2ccccc2c(CNCCCN)c2ccccc12 | 1
C/C(COc1ccc2oc(-c3ccccc3)cc(=O)c2c1)=N\O | 1
O=C(CSc1nc2ccc(I)cc2c(=O)n1Cc1ccccc1)NNC(=S)Nc1ccccc1 | 1
COC1=CC(c2ccc[nH]2)=N/C1=C\c1[nH]c(C)c(CC(=O)NCc2ccccc2)c1C | 0
OC(c1cc2ccccc2[nH]1)C(O)(c1cc2ccccc2[nH]1)c1cc2ccccc2[nH]1 (centres undefined) | 1
CCN(CC)CCOCCOCC1(c2ccc(Cl)c(Cl)c2)CCCCC1 | 0
CN1CCN(c2ccncc2S(=O)(=O)N2CCN(C)CC2)CC1 | 1
Cc1cccc2c(=O)c3c(sc12)c(NCCCN)nc1ccccc13 | 0

---

# reported TGI; entries follow
# Test system: MDA-N
# procedure_details: NCI tumour cell line growth inhibition, 48 h

molecule | experimental_target | TGI
Cc1cn(CC2(CO)CCC2)c(=O)[nH]c1=O | MDA-N | > 100 µM
C/C(=N\N)C(CN1CCOCC1)C(c1ccccc1)c1c(O)c2ccccc2oc1=O (configuration not stated) | MDA-N | > 100 µM
Cc1cc(-c2nc3ccc(F)cc3s2)ccc1NC(=O)C(N)CCCCN (configuration not stated) | MDA-N | 5 µM
COc1ccc(N[C@H](CS(=O)c2ccc(C)cc2)C(F)(F)F)cc1 (some centres not stated) | MDA-N | > 100 µM
COc1c(O)cc2c(c1O)C(=O)C(Cc1ccc(O)cc1)CO2 (configuration not stated) | MDA-N | > 100 µM
CC1(C)C(CBr)=[N+]([O-])C(C)(C)N1O | MDA-N | > 10 µM
C1=C2C3=[N+](CCCC3)CC2Cc2sccc21 (configuration not stated) | MDA-N | > 100 µM
O=C(O)CN1CCN2CCCCCCCCN(CC1)CCN(CC(=O)O)CC2 | MDA-N | > 100 µM
CN1/C(=C\N=O)C(C)(C)N(O)C1(C)C | MDA-N | > 100 µM
COc1ccc(C/C=C(\C)CCO)cc1 | MDA-N | > 100 µM
COc1cc2c(c(OC)c1OC)-c1ccc(OC)c(=O)cc1C(NC(=O)CCCCCNc1ccc(N=[N+]=[N-])cc1[N+](=O)[O-])CC2 (configuration not stated) | MDA-N | < 0.01 µM
Fc1ccccc1-c1cc(=S)c2cc3c(cc2[nH]1)OCO3 | MDA-N | > 26.7 µM
C[C@@H](c1ccccc1)N1C[C@@H](c2ccc3c(c2)OCO3)[C@@H]2C(=O)CCC[C@@H]21 | MDA-N | > 100 µM
C[C@H](CCC(=O)O)[C@H]1CC[C@H]2[C@@H]3[C@H](O)[C@H](O)[C@@H]4C[C@H](O)CC[C@]4(C)[C@H]3CC[C@]12C | MDA-N | > 100 µM
O=C1CC=C2C3CC4N(CCC45c4ccccc4N1C25)C/C3=C\CO (configuration not stated) | MDA-N | > 100 µM
CCc1cc2c(cc1C(=O)CCC(=O)O)CC1(C2)Cc2cc(CC)c(C(=O)CCC(=O)O)cc2C1 | MDA-N | > 100 µM
CCOP(=O)(OCC)/C(=C\n1ccc(=O)[nH]c1=S)C(=O)OC | MDA-N | > 100 µM

---

# Tested on: OVCAR-3 ovarian
# procedure_details: NCI tumour cell line growth inhibition, 48 h
Please note: T applies when TGI is 10 µM or greater, and F applies otherwise.

compound | assigned_label
O=C1NCN(c2ccccc2)C12CCN(CCCN1CCN(CCOC(c3ccccc3)c3ccccc3)CC1)CC2 | F
COC(=O)c1ccc(Oc2nc3ccc(C(F)(F)F)cc3nc2-c2ccccc2)cc1 | T
OC(c1cc2ccccc2[nH]1)C(O)(c1cc2ccccc2[nH]1)c1cc2ccccc2[nH]1 (centres undefined) | F
CSc1nc2c(nc(N)n2C2OC(CO)C(O)C(O)C2O)c(=O)[nH]1 (centres undefined) | T
Cc1ccc(NC(=O)C(=O)C2C(=O)NC(=O)NC2=O)c(C)c1 | T
COc1c(C)c(C/C=C(\C)CC/C=C(\C)CC/C=C(\C)CC/C=C(\C)CCC=C(C)C)c(OC)c(OC)c1OC | T
Cc1ccc2c(ccc3ncc(CNc4ccc(NS(C)(=O)=O)cc4)c32)[nH]1 | T
OCC#Cc1ccccc1C#Cc1ccc(C#Cc2ccccc2C#CCO)cc1 | T
COC(=O)[C@H](Cc1ccccc1)NC(=O)OCC1OC(n2cc(C)c(=O)[nH]c2=O)CC1N=[N+]=[N-] (some centres undefined) | T
COc1cc(/C=C2\N=C(c3ccccc3)N(c3nc4ccccc4s3)C2=O)cc(OC)c1OC | T
O=C(N/C(=C\c1cccc([N+](=O)[O-])c1)c1nc2c3c(ccc2[nH]1)C(=O)c1ccccc1C3=O)c1ccccc1 | T
CC1=C/C(=N\NS(=O)(=O)c2ccc([N+](=O)[O-])cc2)CC(C)(C)C1 | T
Cc1cc(C)c([I+]c2c(C)cc(C)cc2C)c(C)c1 | F
Cc1cccc2c(=O)c3c(sc12)c(NCCCN)nc1ccccc13 | F
O=C(O)CN1CCN2CCCCCCCCN(CC1)CCN(CC(=O)O)CC2 | T
COc1nc(NC2OC(COC(C)=O)C(OC(C)=O)C(OC(C)=O)C2OC(C)=O)c(N=C(C)C(C)=O)c(=O)n1C (centres undefined) | T
CO[C@H]1/C=C/O[C@@]2(C)Oc3c(C)c(O)c4c(O)c(c(/C=N/N5C(C)CN(Cc6ccc(C#N)cc6)CC5C)c(O)c4c3C2=O)NC(=O)/C(C)=C\C=C\[C@H](C)[C@H](O)[C@@H](C)[C@@H](O)[C@@H](C)[C@H](OC(C)=O)[C@@H]1C (some centres undefined) | T
CC1CN=C(N(C(=O)Nc2ccc(Cl)cc2)c2cccc(Cl)c2)S1 (centres undefined) | T
COc1ccc(CC2Cc3ccccc3CC(=O)N2)cc1OC (centres undefined) | T
COc1ccc(/C(=N/OCCCC(=O)O)c2cccs2)cc1 | T
CC(C)(C)c1ccc(NS(=O)(=O)c2ccc(N)cc2)cc1 | T
COc1ccc(-c2c(NC(=O)Nc3ccc(Cl)c(C(F)(F)F)c3)cnn2-c2ccc(S(N)(=O)=O)cc2)cc1 | F
COc1ccc(C/C=C(\C)CCO)cc1 | T
COc1ccc2[nH]c3c(c2c1)CCc1c(OC)cccc1-3 | T
COc1cccc(/C=C2\N=C(Cl)OC2=O)c1O | T
C#Cc1cccc(Nc2nc(C)nc3cc(NC(=O)CCl)ccc23)c1 | F
CCOC(=O)C1=NN(c2ccc(C)cc2)C2(c3ccccc3)C=C(c3ccccc3)N(C)CCN12 (centres undefined) | T
CCCC[C@H](CCc1ccccc1)N(C(=O)OC)N1CCC[C@H]1COC | T
C=CCC1(CN(C)C)CC/C(=C\c2cc(OC)c(OC)c(OC)c2)C1=O (centres undefined) | T
Cc1ccc(F)c2[nH]c(-c3ccccc3)cc(=O)c12 | T
C/C(CC(O)(C(F)(F)F)C(F)(F)F)=N\NC(N)=S | T
COc1cc(OCCCN2CCCC2)ccc1Nc1ncc(Cl)c(Nc2ccccc2P(C)(C)=O)n1 | T
CCCCCCCCCCCCCCCCCC1=NC(C)(C)CN1C(C)(C)CO | F
CS(=O)(=O)c1ccc(C(=O)O[C@@H]2C(=O)N3CC[C@H]4OC(O)[C@@H]2[C@H]43)cc1 (some centres undefined) | T
Cc1ccc(S(=O)(=O)NC(Cc2ccccc2)C(=O)CCl)cc1 (centres undefined) | T
C/C1=C\[C@@H](C)C[C@@H](C)OC(=O)[C@@H](C)NC(=O)[C@H](Cc2ccc(O)c(Br)c2)N(C)C(=O)CNC(=O)[C@H](C)C1 | F
NC(CCl)=NCC12CC3CC(CC(C3)C1)C2 | F
COc1ccc(N[C@H](CS(=O)c2ccc(C)cc2)C(F)(F)F)cc1 (some centres undefined) | T
